- Target Or Test System: human apical sodium-dependent transporter (SLC10A2, ASBT) (Homo sapiens)
- Sequence (Q12908 whole entry): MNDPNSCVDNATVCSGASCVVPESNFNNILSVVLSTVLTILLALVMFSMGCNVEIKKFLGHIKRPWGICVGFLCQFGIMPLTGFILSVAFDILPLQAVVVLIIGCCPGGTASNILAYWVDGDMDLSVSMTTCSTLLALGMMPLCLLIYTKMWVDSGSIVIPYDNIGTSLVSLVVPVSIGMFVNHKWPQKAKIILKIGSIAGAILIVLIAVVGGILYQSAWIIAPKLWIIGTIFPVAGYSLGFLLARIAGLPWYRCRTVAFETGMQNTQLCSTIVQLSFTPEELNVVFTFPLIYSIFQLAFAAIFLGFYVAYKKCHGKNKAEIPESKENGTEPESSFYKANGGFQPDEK
- Assay Protocol: ASBT cis-inhibition of taurocholate uptake in ASBT-MDCK cells
- Measurement Setup: read-out: percent taurocholate inhibited at the highest inhibitor concentration
Where a name gives a salt, the structure may show the parent alone.
inhibition at 25 µM values for the compounds below.
Give a bare numeral; the unit % is implied.

Some compounds with known inhibition at 25 µM results, for comparison:
Cc1c(OCC(F)(F)F)ccnc1C[S+]([O-])c1nc2ccccc2[nH]1 (centres unmarked) [Lansoprazole] : 30.2
COc1ccc2c(c1)c(CC(=O)O)c(C)n2C(=O)c1ccc(Cl)cc1 [Indomethacin, indomethacin] : 23.2
COc1ccc([C@@H]2Sc3ccccc3N(CCN(C)C)C(=O)[C@@H]2OC(C)=O)cc1 [Diltiazem hydrochloride, diltiazem hydrochloride] : 16
O=C(O)C[C@H](O)C[C@H](O)/C=C/c1c(C2CC2)nc2ccccc2c1-c1ccc(F)cc1 [Pitavastatin] : 22.7
COC(=O)C1=C(C)NC(C)=C(C(=O)OC(C)C)C1c1cccc2nonc12 (centres unmarked) [Isradipine, isradipine] : 25.7

stdin: Bench note: what inhibition at 25 µM did CC(C)c1nc(N(C)S(C)(=O)=O)nc(-c2ccc(F)cc2)c1/C=C/[C@@H](O)C[C@@H](O)CC(=O)O [Rosuvastatin] show?
stdout: 8.9

stdin: Please give the measured inhibition at 25 µM for this compound: CCCCOc1cc(C(=O)NCCN(CC)CC)c2ccccc2n1 [Dibucaine hydrochloride, dibucaine hydrochloride]
stdout: 10.5

stdin: Which inhibition at 25 µM reading was recorded for the compound Clc1ccc(C(Cn2ccnc2)OCc2ccsc2Cl)c(Cl)c1 (centres unmarked) [Tioconazole, tioconazole] ?
stdout: 32.2

stdin: Name the reported inhibition at 25 µM value associated with the compound CCCCNc1cc(C(=O)O)cc(S(N)(=O)=O)c1Oc1ccccc1 [Bumetanide, bumetanide]
stdout: 7.1

stdin: Param item = CC(C)n1c(/C=C/C(O)CC(O)CC(=O)O)c(-c2ccc(F)cc2)c2ccccc21 (centres unmarked) [Fluvastatin, fluvastatin] ; retrieve measured inhibition at 25 µM.
stdout: 40.2

stdin: // returns reported inhibition at 25 µM for input CC(C)(C#N)c1cc(Cn2cncn2)cc(C(C)(C)C#N)c1 [Anastrozole]
stdout: 9.73

stdin: For the compound CC(C)OC(=O)CCC/C=C\C[C@@H]1[C@@H](CC[C@@H](O)CCc2ccccc2)[C@H](O)C[C@@H]1O [Latanoprost, latanoprost] , what inhibition at 25 µM is on record?
stdout: 46.9

stdin: What value of inhibition at 25 µM has been recorded for this entry: NS(=O)(=O)c1cc2c(cc1C(F)(F)F)NC(Cc1ccccc1)NS2(=O)=O (centres unmarked) [Bendroflumethiazide, bendroflumethiazide]
stdout: 8.86

stdin: Find the recorded inhibition at 25 µM belonging to N=C(N)c1ccc(OCCCCCOc2ccc(C(=N)N)cc2)cc1 [Pentamidine Isethionate, pentamidine isethionate] and report it.
stdout: 10.9

Origin of the recorded values: paper PMC2909451
